- measurement-protocol: Apparent permeability from basolateral to apical side in MDCK-MDR1 cells
- Type: ADME, cell-based, Canis lupus familiaris
- stated-conditions: dog
quantity-kind: Papp B→A (×10⁻⁶ cm/s)

[a] C[C@H](Oc1cc2cc(F)cc(F)c2nc1N)c1cc(C(=O)O)ccc1-n1cccn1
[b] C[C@H](Oc1cc2cc(F)ccc2nc1N)c1[nH]c(=O)ccc1-n1cccn1
Looking at a and b , which one comes out lower in Papp B→A terms? Output the label that corresponds to your choice.
a
(a: 4 ×10⁻⁶ cm/s, b: 14 ×10⁻⁶ cm/s)

====

- tgt: UniProt P10632
- Sequence (P10632 whole entry): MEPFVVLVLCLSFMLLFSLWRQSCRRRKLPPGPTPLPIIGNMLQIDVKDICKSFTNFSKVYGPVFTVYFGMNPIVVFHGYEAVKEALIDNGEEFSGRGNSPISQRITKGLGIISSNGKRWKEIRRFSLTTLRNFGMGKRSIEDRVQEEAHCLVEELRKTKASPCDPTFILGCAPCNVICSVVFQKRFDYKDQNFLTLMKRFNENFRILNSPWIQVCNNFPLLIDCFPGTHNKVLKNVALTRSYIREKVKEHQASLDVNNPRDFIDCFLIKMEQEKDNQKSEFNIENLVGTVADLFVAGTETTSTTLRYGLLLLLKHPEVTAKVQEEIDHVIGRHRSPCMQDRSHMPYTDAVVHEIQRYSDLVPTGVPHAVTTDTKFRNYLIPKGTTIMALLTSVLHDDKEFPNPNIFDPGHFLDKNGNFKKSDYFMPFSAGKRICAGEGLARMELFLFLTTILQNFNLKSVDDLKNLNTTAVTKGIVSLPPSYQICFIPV
- measurement-protocol: Inhibition of CYP2C8 (unknown origin) at 3 uM relative to control
- Assay type: ADME
quantity-kind: inhibition at 3 µM

Tell me measured inhibition at 3 µM for Cc1n[nH]cc1-c1cnc(N)c(O[C@@H](C)c2cc(F)ccc2-n2cccn2)c1 please.
< 50%
